Below, each entry is listed with its recorded fluorescence intensity.
Molecular target: T1, Rhesus monkey glycophorin A on Rhesus monkey red blood cells (Rhesus monkey, UniProt A0A1D5Q349 20-150)
T1 construct: whole, on cells; also called Rhesus RBC; monkey GPA
T1 sequence: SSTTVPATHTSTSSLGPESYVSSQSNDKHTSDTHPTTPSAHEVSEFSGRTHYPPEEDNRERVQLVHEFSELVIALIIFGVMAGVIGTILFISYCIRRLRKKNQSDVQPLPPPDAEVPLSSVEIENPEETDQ
Assay: FACS, RBC Rh02

# annotated cases, reported fluorescence intensity shown
[
  {
    "binder": "Hu6C12-23 (antibody, V domains shown, IgG format; VH.1f + Vk.1b) VH: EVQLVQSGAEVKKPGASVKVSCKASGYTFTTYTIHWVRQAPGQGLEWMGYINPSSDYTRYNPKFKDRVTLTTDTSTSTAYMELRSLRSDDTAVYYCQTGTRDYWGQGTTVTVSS VL: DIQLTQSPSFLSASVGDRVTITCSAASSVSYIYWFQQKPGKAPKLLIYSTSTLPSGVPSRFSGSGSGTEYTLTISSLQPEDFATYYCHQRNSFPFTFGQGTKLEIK",
    "fluorescence intensity": 1680
  },
  {
    "binder": "Hu6C12-22 (antibody, V domains shown, IgG format; VH.1e + Vk.1b) VH: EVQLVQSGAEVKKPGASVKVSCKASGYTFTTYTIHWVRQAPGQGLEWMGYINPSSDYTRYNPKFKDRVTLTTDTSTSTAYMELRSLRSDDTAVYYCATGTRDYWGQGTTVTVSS VL: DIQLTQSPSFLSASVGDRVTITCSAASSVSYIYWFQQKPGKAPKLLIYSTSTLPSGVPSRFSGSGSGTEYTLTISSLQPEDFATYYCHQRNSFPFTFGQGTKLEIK",
    "fluorescence intensity": 1490
  },
  {
    "binder": "Hu6C12-11 (antibody, V domains shown, IgG format; VH.1b + Vk.1a) VH: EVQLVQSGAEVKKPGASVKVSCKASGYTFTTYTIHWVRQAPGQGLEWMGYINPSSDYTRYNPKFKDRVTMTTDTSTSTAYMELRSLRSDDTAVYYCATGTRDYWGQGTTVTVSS VL: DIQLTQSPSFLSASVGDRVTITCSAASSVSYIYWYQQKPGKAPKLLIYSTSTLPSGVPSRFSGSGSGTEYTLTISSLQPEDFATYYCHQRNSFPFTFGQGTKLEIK",
    "fluorescence intensity": 1440
  },
  {
    "binder": "Hu6C12-4 (antibody, V domains shown, IgG format; VH.1d + Vk.1) VH: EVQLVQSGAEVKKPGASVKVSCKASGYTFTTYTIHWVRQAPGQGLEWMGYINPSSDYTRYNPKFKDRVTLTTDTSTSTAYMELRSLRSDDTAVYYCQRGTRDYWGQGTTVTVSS VL: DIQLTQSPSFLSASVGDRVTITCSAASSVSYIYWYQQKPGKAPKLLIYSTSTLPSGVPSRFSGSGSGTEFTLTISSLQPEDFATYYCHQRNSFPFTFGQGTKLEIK",
    "fluorescence intensity": 1320
  }
]

Could you tell me which fluorescence intensity is on file for Hu6C12-20 (antibody, V domains shown, IgG format; VH.1c + Vk.1b) VH: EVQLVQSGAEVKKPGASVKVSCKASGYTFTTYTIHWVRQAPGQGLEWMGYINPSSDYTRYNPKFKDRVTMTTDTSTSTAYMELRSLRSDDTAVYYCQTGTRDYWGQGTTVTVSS VL: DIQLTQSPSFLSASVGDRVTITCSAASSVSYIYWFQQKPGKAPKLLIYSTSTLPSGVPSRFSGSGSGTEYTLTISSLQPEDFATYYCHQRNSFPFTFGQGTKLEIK ?
1620
